value-type: melting point

Illustrative cases are given below, each with its answer.
| molecule | melting point |
| --- | --- |
| COCCn1nc(-c2ccc(C(C)(C)C)cc2)cc1C(=O)NCc1ccc(OC(C)(C)C(=O)O)c(C)c1 | 112 °C |
| COC(=O)c1ccc(Cl)c(O)c1 | 100 to 101 °C |
| O=C1c2ccccc2CN1CCC#Cc1ccccn1 | 94 to 98 °C |
| CCN(c1nc(C)cc(C(=O)c2nccs2)n1)c1ccc(C(C)C)cc1Br | 97 to 98.5 °C |
| CNC(=O)n1nc(Oc2c(F)cc(C(F)(F)F)cc2Cl)cc1C | 87 to 88 °C |

Below is a list of molecules. For each, state its recorded melting point.
1. Cc1nn(-c2ccc(C(F)(F)F)cn2)cc1COc1cc(/C=C/C(=O)O)n(C)n1
2. CC(C)(C)OC(=O)Nc1ccnc(NC(=O)NCc2ccccn2)c1
3. COc1cc2ncnc(N3CCN(c4ccc5c(c4)CCC(=O)N5)CC3)c2cc1OC
4. CC(=O)OC(C)c1cccc2cc(C(=O)CBr)oc12 (stereo unspecified)

1: 208 to 209 °C; 2: 192 to 193 °C; 3: 261 to 262 °C; 4: 86 to 88 °C

Below is a list of molecules. For each, state its recorded melting point.
1. O=C1CCCN1c1cccc2cccnc12
2. CC(C)(C)OC(=O)N1CCC(c2c[nH]cn2)CC1

1: 118 to 120 °C; 2: 198 °C

###

value-type: melting point

Illustrative cases are given below, each with its answer.
| molecule-smiles | melting point |
| --- | --- |
| CN(c1cncnc1)c1nc(N2CCOCC2)nc(-n2c(C(F)F)nc3ccccc32)n1 | 202 to 205 °C |
| COc1cc2c3c(n(Cc4ccccc4)c(=O)c2cc1OC)-c1cc2c(cc1C3=O)OCO2 | 310 to 312 °C |
| COc1ccc2c(c1)C(=O)C(=O)N2c1ccc(F)cc1 | 246 to 247 °C |

Below is a list of compounds. For each, state its recorded melting point.
1. OCCCc1ccc(Sc2ccc(CCCO)cc2C(F)(F)F)c(C(F)(F)F)c1
2. Fc1ccccc1C1=NCc2c[nH]cc2-c2ccc(Cl)cc21

1. 96 to 102 °C
2. 197 to 199 °C

###

Would you mind telling me the reported melting point of each entry?

Illustrative cases are given below, each with its answer.
| compound | melting point |
| --- | --- |
| C#CCc1c(C)nc2c(OCc3c(C)cccc3N(C)C(C)=O)cccn12 | 76 °C |
| CCCCc1nn(CC(=O)c2ccccc2)c(=O)n1Cc1ccc(-c2ccccc2-c2nnn[nH]2)cc1 | 89 to 92 °C |
| Cn1nc(-c2ccccc2)cc1-c1ccccc1 | 52 to 53 °C |
| COCCOc1cc(N(C)S(=O)(=O)c2cccs2)c2[nH]c(C(N)=O)cc2c1 | 214 to 215 °C |
| CCOC(=O)Nc1cc(N2CCN(c3ccc([N+](=O)[O-])cc3)CC2)ccn1 | 243 to 245 °C |
| CNc1c(F)c(F)c(F)c2c1c(=O)c(C(=O)O)cn2C1CC1 | 205 to 207 °C |
| Cc1cccc(C(=O)C(C)(C)C(C)(C)[N+](=O)[O-])c1 | 50 to 51 °C |
| CNC(=NOC)C1=Nc2ccc(Cl)cc2C(c2ccccc2F)=NC1 | 140 to 142 °C |

Below is a list of compounds. For each, state its recorded melting point.
1. Cc1onc(-c2ccccc2)c1-c1ccc(S(C)(=O)=O)cc1
2. NS(=O)(=O)CCCCCCl
3. CC1C(=O)N(c2ccccc2OCCCCBr)Sc2ccccc21 (stereo unspecified)
4. N#CNC=Nc1ccc(-c2ccccn2)cc1
5. O=c1c2c(Cc3ccccc3Cl)n[nH]c2c2cccnc2n1-c1cccc(OC(F)(F)F)c1

1. 54 to 56 °C
2. 62 °C
3. 93 °C
4. 150 to 151 °C
5. 273 to 275 °C
